Tested on: rhythmic bladder contractions induced by substance P
Experiment: Inhibitory effect on the rhythmic bladder contractions induced by substance P in anesthetized rats
Format: in vivo, rat
Conditions: time during which frequency of rhythmic contraction was completely inhibited, 0.25 mg/kg of the compound, substance P infusion
RECORDED_METRIC: 100% inhibition time range

Worked set:
| COMPOUND | STUDY_TARGET | 100% inhibition time range |
| --- | --- | --- |
| O=C(O)Cc1nc(-c2cc3ccc(F)cc3s2)oc1-c1ccc(Cl)s1 [Preparation Example 451] | rhythmic bladder contractions induced by substance P | B (A≧20>B≧10>C (minute)) |
| O=C(O)Cc1nc(-c2ccc(F)cc2)oc1-c1cc2ccccc2o1 [Preparation Example 254] | rhythmic bladder contractions induced by substance P | C (A≧20>B≧10>C (minute)) |
| O=C(O)Cc1nc(-c2ccc(F)cc2)oc1-c1cccc(Cl)c1 [Preparation Example 241] | rhythmic bladder contractions induced by substance P | C (A≧20>B≧10>C (minute)) |
| NC(C(=O)O)c1nc(-c2ccc(F)cc2)oc1-c1ccc(Cl)s1 (centres unmarked) [Preparation Example 627] | rhythmic bladder contractions induced by substance P | C (A≧20>B≧10>C (minute)) |
| Cc1ccc(-c2nc(CC(=O)O)c(-c3cccs3)o2)s1 [Preparation Example 268] | rhythmic bladder contractions induced by substance P | C (A≧20>B≧10>C (minute)) |
| O=C([O-])Cc1nc(-c2ccc(F)cc2)oc1-c1ccc(Cl)s1.[Na+] [Preparation Example 152] | rhythmic bladder contractions induced by substance P | B (A≧20>B≧10>C (minute)) |
| CSCc1nc(-c2ccc(F)cc2)[nH]c1-c1cccnc1 [Preparation example 133] | rhythmic bladder contractions induced by substance P | C (A≧20>B≧10>C (minute)) |

Briefly, 100% inhibition time range measured for CSc1ncc(-c2nc(-c3ccc(Cl)s3)c(CC(=O)O)s2)cn1 [Preparation Example 572] : C (A≧20>B≧10>C (minute))

----------
Test system: rhythmic bladder contractions induced by substance P
Assay: Inhibitory effect on the rhythmic bladder contractions induced by substance P in anesthetized rats
Format: in vivo, rat
Conditions: time during which frequency of rhythmic contraction was completely inhibited, 0.25 mg/kg of the compound, substance P infusion
RECORDED_METRIC: 100% inhibition time range

Worked set:
| COMPOUND | MEASURED |
| --- | --- |
| O=C(O)Cc1nc(-c2ccc3nccn3c2)oc1-c1ccc(Cl)s1 | C (A≧20>B≧10>C (minute)) |
| Cl.Cl.N#CCCc1[nH]c(-c2ccc(F)cc2)nc1-c1cccnc1 | C (A≧20>B≧10>C (minute)) |
| CN(C)c1[nH]c(-c2ccc(F)cc2)nc1-c1ccccc1.Cl | B (A≧20>B≧10>C (minute)) |
| O=C(O)Cc1nc(-c2ccc(F)cc2)oc1-c1cccc(O)c1 | C (A≧20>B≧10>C (minute)) |
| COc1ccc(-c2nc(CC(=O)O)c(-c3cccs3)o2)cc1 | B (A≧20>B≧10>C (minute)) |

Briefly, 100% inhibition time range measured for `CCc1c(-c2cccnc2)nc(-c2ccc(F)cc2)n1CC` : A (A≧20>B≧10>C (minute))

Briefly, 100% inhibition time range measured for `O=C(O)Cc1nc(-c2cc3c(s2)CCC3)oc1-c1ccc(Cl)s1` : C (A≧20>B≧10>C (minute))

Briefly, 100% inhibition time range measured for `O=C(O)Cc1nc(-c2cc3ccccc3[nH]2)oc1-c1ccc(Cl)s1` : B (A≧20>B≧10>C (minute))

Briefly, 100% inhibition time range measured for C[S+]([O-])Cc1[nH]c(-c2ccc(F)cc2)nc1-c1ccccc1 (centres unmarked) : C (A≧20>B≧10>C (minute))

Briefly, 100% inhibition time range measured for `O=C(O)Cc1nc(-c2cc3ccccc3s2)oc1-c1ccc(Cl)s1` : C (A≧20>B≧10>C (minute))

Briefly, 100% inhibition time range measured for `Cc1ccc(-c2nc(CC(=O)O)c(-c3ccc(Cl)s3)o2)cn1` : B (A≧20>B≧10>C (minute))

Briefly, 100% inhibition time range measured for `CN(C)c1ccc(-c2nc(-c3ccc(Cl)c(F)c3)c(CC(=O)O)s2)cn1` : C (A≧20>B≧10>C (minute))

Briefly, 100% inhibition time range measured for `O=C(O)Cc1sc(-c2ccc(F)cc2)nc1-c1ccc(Cl)c(F)c1` : A (A≧20>B≧10>C (minute))

Briefly, 100% inhibition time range measured for `O=C(O)Cc1nc(-c2ccc(Cl)cc2)oc1-c1ccc(Cl)s1` : A (A≧20>B≧10>C (minute))

Briefly, 100% inhibition time range measured for `CN(C)c1ccc(-c2nc(-c3cccs3)c(CC(=O)O)s2)cn1` : C (A≧20>B≧10>C (minute))

Briefly, 100% inhibition time range measured for `O=C([O-])Cc1oc(-c2ccc(F)cc2)nc1-c1ccc(Cl)s1.[Na+]` : C (A≧20>B≧10>C (minute))

Briefly, 100% inhibition time range measured for `Cc1cc(-c2oc(-c3ccc(F)cc3)nc2CC(=O)O)sc1Cl` : B (A≧20>B≧10>C (minute))

----------
System: rhythmic bladder contractions induced by substance P
Assay: Inhibitory effect on the rhythmic bladder contractions induced by substance P in anesthetized rats
Format: in vivo, rat
Conditions: time during which frequency of rhythmic contraction was completely inhibited, 0.25 mg/kg of the compound, substance P infusion
RECORDED_METRIC: 100% inhibition time range

Worked set:
| COMPOUND | 100% inhibition time range |
| --- | --- |
| O=C(O)Cc1nc(-c2ccc(Cl)cc2)oc1-c1cccnc1 | C (A≧20>B≧10>C (minute)) |
| COc1ccc(-c2nc(CC(=O)O)c(-c3ccccc3F)o2)cc1 | C (A≧20>B≧10>C (minute)) |
| Clc1ccc(-c2ncc(-c3cccnc3)[nH]2)s1 | B (A≧20>B≧10>C (minute)) |
| CN(C)c1cnc(-c2nc(CC(=O)O)c(-c3ccc(Cl)s3)o2)cn1 | C (A≧20>B≧10>C (minute)) |
| COc1ccc(-c2nc(CC(=O)O)c(-c3ccsc3)o2)cn1 | B (A≧20>B≧10>C (minute)) |

// moving on: another record for 100% inhibition time range
Briefly, 100% inhibition time range measured for `COc1ccc(-c2nc(CC(=O)O)c(-c3ccc(Cl)cc3)o2)cc1` : B (A≧20>B≧10>C (minute))

----------
Test system: isolated rabbit urinary bladder
Assay: Relaxation effect on potassium-induced contraction of isolated rabbit urinary bladder
Assay type: cell-based
Conditions: Oryctolagus cuniculus; 50% relaxation concentration; high-K+ (30 mM) pre-contracted rabbit bladder strips; relaxation as percentage of the maximum produced by 0.1 mM papaverine; read-out: EC50 value range
Measured EC50, listed per entry for reference.

Worked set:
| COMPOUND_SMILES | EC50 |
| --- | --- |
| O=C(O)Cc1nc(-c2ccc3occc3c2)oc1-c1ccsc1 | 1000 to 3000 nM |
| O=C(O)Cc1nc(-c2ccc(F)cc2)oc1-c1ccc[nH]1 | 1000 to 3000 nM |
| CCc1nc(-c2ccc(Cl)cc2)[nH]c1-c1ccccc1 | 1000 to 3000 nM |
| O=C(O)Cc1nc(-c2ccc(F)cc2)oc1-c1ccc(Br)s1 | ≤ 500 nM |
| CCN(C)c1ncc(-c2nc(CC(=O)O)c(-c3ccc(Cl)s3)o2)cn1 | 1000 to 3000 nM |
| Clc1ccc(-c2ncc(-c3cccnc3)[nH]2)s1 | ≤ 500 nM |
| O=C(O)Cc1nc(-c2ccc(F)cc2)oc1-c1csc(Cl)c1 | ≤ 500 nM |

// moving on: another record for EC50
Briefly, EC50 measured for `CCCc1nc(-c2ccc(F)cc2)[nH]c1-c1ccc(F)cc1` : 1000 to 3000 nM

----------
Test system: isolated rabbit urinary bladder
Assay: Relaxation effect on potassium-induced contraction of isolated rabbit urinary bladder
Assay type: cell-based
Conditions: Oryctolagus cuniculus; 50% relaxation concentration; high-K+ (30 mM) pre-contracted rabbit bladder strips; relaxation as percentage of the maximum produced by 0.1 mM papaverine; read-out: EC50 value range
RECORDED_METRIC: EC50

Briefly, EC50 measured for `CCCc1nc(-c2ccsc2)[nH]c1-c1ccccc1` : ≤ 500 nM

Briefly, EC50 measured for `O=C(O)Cc1nc(-c2ccc(F)cc2)oc1-c1ccc(Cl)c(F)c1` : 500 to 1000 nM

Briefly, EC50 measured for `CCCc1nc(-c2cccc3ccccc23)[nH]c1-c1ccccc1` : 1000 to 3000 nM

Briefly, EC50 measured for `COc1ccc(-c2nc(-c3ccc(Cl)cc3)c(CC(=O)O)o2)cc1` : ≤ 500 nM

----------
Measured EC50, listed per entry for reference.
System: isolated rabbit urinary bladder
Assay: Relaxation effect on potassium-induced contraction of isolated rabbit urinary bladder
Format: cell-based
Settings: Oryctolagus cuniculus; 50% relaxation concentration; high-K+ (30 mM) pre-contracted rabbit bladder strips; relaxation as percentage of the maximum produced by 0.1 mM papaverine; read-out: EC50 value range

Briefly, EC50 measured for CCCc1nc(-c2ccc(F)cc2)[nH]c1-c1cccc(F)c1 [Preparation example 99] : 0.5 to 1 µM

Briefly, EC50 measured for Fc1ccc(-c2nc(CC(F)(F)F)c(-c3ccsc3)[nH]2)cc1 [Preparation Example 173] : 1 to 3 µM

Briefly, EC50 measured for COc1ccc(-c2nc(-c3ccc(Cl)cc3)c(CC(=O)O)s2)cc1 [Preparation Example 575] : ≤ 0.5 µM

Briefly, EC50 measured for O=C(O)/C=C/c1nc(-c2ccc(F)cc2)oc1-c1ccc(Cl)s1 [Preparation Example 626] : 1 to 3 µM
